These entries and their values trace back to PubChem BioAssay (NCI).

- EXPERIMENT: NCI Yeast Anticancer Drug Screen. Data for the cln2 rad14 strain (AID 165);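 further: 0% = growth equal to vehicle treated cultures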
- CONDITION_PARAMETERS: S. cerevisiae cln2 rad14 strain, at 5.0 µM (retest, dose inferred, filed as 0.5), hits give high values
About 79,000 compounds went through this panel and 15% of them were active in at least one assay; those are over-represented in the sample as a whole.
t means recorded growth inhibition is 10% or above; f means it is below 10%.

Consider the following illustrative entries.
1. COc1ccc2ccccc2c1-c1c(O)ccc2ccccc12 :: f
2. COC1C(=[N+]=[N-])C(=O)NC(=O)N1C1OC(COC(c2ccccc2)(c2ccccc2)c2ccccc2)C(O)C1O (configuration not stated) :: t
3. [Cl][Sn]([O][Sn]([Cl])([c]1ccccc1)[CH]1CCCCC1)([c]1ccccc1)[CH]1CCCCC1 (configuration not stated) :: f

Enquiry: hey, is growth inhibition for this one >= 10%? COc1cc(/C=C/C(=N\NC(=O)c2ccccc2)c2sc(Nc3ccc(Cl)c(Cl)c3)nc2C)ccc1O
Return: t

Enquiry: hey, is growth inhibition for this one >= 10%? Cc1ccc(Nc2nc(C)c(C(/C=C/c3ccc4c(c3)OCO4)=N/Nc3ccc([N+](=O)[O-])cc3[N+](=O)[O-])s2)c([N+](=O)[O-])c1
Return: t

Enquiry: hey, is growth inhibition for this one >= 10%? Cc1cc(N=Nc2ccccc2C)c(N)cc1N
Return: f

Enquiry: hey, is growth inhibition for this one >= 10%? N#CC(Nc1cccc(C(F)(F)F)c1)c1ccccc1C(F)(F)F (configuration not stated)
Return: t

====

- EXPERIMENT: NCI Yeast Anticancer Drug Screen. Data for the cln2 rad14 strain (AID 165);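 further: 0% = growth equal to vehicle treated cultures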
- CONDITION_PARAMETERS: S. cerevisiae cln2 rad14 strain, at 50.0 µM (retest, dose inferred, filed as 5.0)
About 79,000 compounds went through this panel and 15% of them were active in at least one assay; those are over-represented in the sample as a whole. Activity calls are given as the source filed them. Rule as the data show it: active = growth inhibition above about 70%; inactive = the rest.
Bench note: report the call from T for active, F for inactive

Consider the following illustrative entries.
1) S=C1NCCNC(=S)SS1 :: T
2) [Ce+3].[Cl-].[O-]/N=C(\c1ccccc1)c1ccccn1.[O-]/N=C(\c1ccccc1)c1ccccn1.[O-]/N=C(\c1ccccc1)c1ccccn1 :: F
3) Oc1ccc(O)c2c1N=NC21c2ccccc2Oc2ccccc21 :: T
4) CCCCCCC/C=C\C(=O)O :: F
5) O=C(CBr)N1c2ccccc2S(=O)(=O)c2ccc3ccccc3c21 :: T
6) CN1CCC(OC(=O)c2ccc3ncccc3c2)CC1 :: F
7) CCCCCCCCCCCCCCCC[N+](C)(C)C(C)c1ccccc1 (stereo not given) :: T
8) O=C(NC1CCN(Cc2ccccc2)CC1)c1ccc(I)cc1 :: T
9) Cc1c2cnccc2c(C)c2c1c1ccccc1n2Cc1ccccc1 :: T
10) C=CCc1ccc2c(C)cc[n+](C)c2c1O :: T

Enquiry: Per the records of this test, what outcome belongs to CCOC(=O)C(=N\Nc1ccccc1C)/C(C)=N\NC(N)=S ?
Return: F

Enquiry: Per the records of this test, what outcome belongs to O=C(CC(=O)c1ccccc1)CC(O)(c1ccccc1)c1ccccc1 ?
Return: T

Enquiry: Per the records of this test, what outcome belongs to COc1ccc(S)cc1 ?
Return: T

Enquiry: Per the records of this test, what outcome belongs to CCC(C)CNCCCCCNc1cc(OC)cc2cccnc12 (stereo not given) ?
Return: F

Enquiry: Per the records of this test, what outcome belongs to CCC[CH2][Sn]([CH2]CCC)([O]C(=O)C(OC)c1ccccc1)[O]C(=O)C(OC)c1ccccc1 (stereo not given) ?
Return: T

====

- EXPERIMENT: NCI Yeast Anticancer Drug Screen. Data for the rad50 strain (AID 155);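 further: 0% = growth of vehicle-only cultures of the same strain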
- CONDITION_PARAMETERS: S. cerevisiae rad50 strain growth inhibition; at 5.0 µM (retest, dose inferred, filed as 0.5)
Compounds without any hit were thinned out: in the full panel of roughly 79,000, 15% have a hit. Active and inactive are the calls of the source. Rule as the data show it: active = growth inhibition above about 70%; inactive = the rest. Where a SMILES comes first, the peptide text is derived from it. [ ]: non-standard residue; d: D form. The star is where a group is joined. Phe(2-OMe) = COc1ccccc1C[CH](N)C(=O)O; Cbz = O=C(OCc1ccccc1)*; OBn = c1ccc(CO*)cc1
Bench note: report the call from t for active, f for inactive

Consider the following illustrative entries.
1) COC(=O)C(Cc1ccccc1OC)NC(=O)C(CC(=O)OCc1ccccc1)NC(=O)OCc1ccccc1 (stereo unspecified) (Cbz-Asp(OBn)-[Phe(2-OMe)]-OMe; configuration not given here) :: f
2) CC1=C(C(=O)Nc2cc(C)ccc2C)C(c2cccc([N+](=O)[O-])c2)C(C(=O)Nc2cc(C)ccc2C)=C(C)N1 :: f
3) CC(=O)Nc1ccccc1C(O)(c1ccccc1)c1ccccc1 :: f
4) COc1cccc(C2c3cc4c(cc3OC(O)C2C)OCO4)c1O (stereo unspecified) :: f
5) CCOC(=O)/C(=C\c1cccc(OC)c1)C(C)=O :: f
6) Cc1cc(=O)[nH]c2cc3oc4ccccc4c3cc12 :: f
7) CC/C(=C\c1cccc(OC)c1)c1ccncc1 :: f
8) c1ccc(N/N=C2/CCCC3/C(=N\Nc4ccccc4)CCCC23)cc1 (stereo unspecified) :: f
9) NS(=O)(=O)c1ccc(NC(=O)Cc2nc3ccccc3s2)cc1 :: f
10) CCC(/C=C/c1ccccc1)=N\Nc1ccccc1 :: f

Enquiry: Per the records of this test, what outcome belongs to Cc1cc(=O)c2c(ccc3cc4ccccc4cc32)[nH]1 ?
Return: f

Enquiry: Per the records of this test, what outcome belongs to CC(=O)NCC1OC2COC(c3ccccc3)OC2C(NC(=O)c2ccccc2)C1OC(=O)c1ccccc1 (stereo unspecified) ?
Return: f

Enquiry: Per the records of this test, what outcome belongs to CC(=O)Nc1ccc(-c2nnc(SCC(=O)Nc3ccc([N+](=O)[O-])cc3)o2)cc1 ?
Return: f

Enquiry: Per the records of this test, what outcome belongs to Cn1c(CCC2(C)Cc3ccccc3C(=O)O2)cc2ccccc2c1=O (stereo unspecified) ?
Return: f

Enquiry: Per the records of this test, what outcome belongs to CC1(Cc2ccccc2)CCCC(C=O)C1=O.[Cu+2] (stereo unspecified) ?
Return: f

====

- EXPERIMENT: NCI Yeast Anticancer Drug Screen. Data for the mec2-1 strain (AID 157)
- CONDITION_PARAMETERS: S. cerevisiae mec2-1 strain, at 5.0 µM (retest, dose inferred, filed as 0.5), hits give high values
The panel holds about 79,000 compounds, 15% with a hit somewhere; the sample as a whole holds those more often. Where a SMILES comes first, the peptide text is derived from it. [ ]: non-standard residue; d: D form. The star is where a group is joined. Phe(4-NO2) = N[CH](Cc1ccc([N+](=O)[O-])cc1)C(=O)O; Boc = CC(C)(C)OC(=O)*
Reported growth inhibition values are given for each entry in this list.
Please give a number only; it is taken to be in %.

Illustrative cases are given below, each with its answer.
1) NCCCC(=O)NC(Cc1cnc[nH]1)C(=O)O (stereo unspecified) :: -6
2) O=C(O)c1nc2cc(C(F)(F)F)ccc2nc1Nc1ccc(F)cc1 :: 23
3) CCCCCCCCCCCCCC[N+]1(CC)CCCCC1 :: 99
4) COc1ccc(C(=O)c2cc(Br)ccc2O)cc1 :: -6
5) O=C1Nc2ccccc2SC1c1ccccc1 (stereo unspecified) :: 15
6) COc1ccc(/C=C/C(C)=N/NC(=S)NCC(C)C)cc1 :: -12

Enquiry: Recorded growth inhibition of CC1=C(C(=O)Nc2cc(C)ccc2C)C(c2cccc([N+](=O)[O-])c2)C(C(=O)Nc2cc(C)ccc2C)=C(C)N1 , please.
Return: 19

Enquiry: Recorded growth inhibition of CNC(=O)CCC(NC(=O)OC(C)(C)C)C(=O)NC(Cc1ccc([N+](=O)[O-])cc1)C(=O)NCC(=O)NC (stereo unspecified) (Boc-Glu(NHMe)-[Phe(4-NO2)]-Gly-NHMe; configuration not given here) , please.
Return: -3

Enquiry: Recorded growth inhibition of O=CC(=C\c1ccco1)/C(C=O)=C\c1ccco1 , please.
Return: 7

Enquiry: Recorded growth inhibition of O=C(CCl)Nc1cc(Cl)ccc1Cl , please.
Return: -20

Enquiry: Recorded growth inhibition of CCCN1CCN(c2ccc([N+](=O)[O-])c3no[n+]([O-])c23)CC1 , please.
Return: 97

Enquiry: Recorded growth inhibition of Cc1nc2c(cnn2C)cc1CCc1ccccc1 , please.
Return: 3

Enquiry: Recorded growth inhibition of COC1=CC(=O)C(O)=C/C1=C\C=C\c1ccccc1 , please.
Return: 59

Enquiry: Recorded growth inhibition of CCO/C=C1N=C(/C=C/c2ccc(Cl)cc2)OC/1=O , please.
Return: 7

Enquiry: Recorded growth inhibition of CCCCCCCCCCCCNCC#N , please.
Return: 11

Enquiry: Recorded growth inhibition of CCCCCCCCCc1c(O)c(O)c(CCCCCCCCC)c(CCCCCCCCC)c1CCCCCCCCC , please.
Return: -11
